Attribute: koff
Molecular target: T1, human ADAMTS5 (human, UniProt Q9UNA0 262-622, limits assumed)
T1 construct: Octet and ELISA used 'recombinant human ADAMTS5'; also called recombinant human ADAMTS5; ADAMTS5 (R&D Systems 2198-AD)
T1 sequence: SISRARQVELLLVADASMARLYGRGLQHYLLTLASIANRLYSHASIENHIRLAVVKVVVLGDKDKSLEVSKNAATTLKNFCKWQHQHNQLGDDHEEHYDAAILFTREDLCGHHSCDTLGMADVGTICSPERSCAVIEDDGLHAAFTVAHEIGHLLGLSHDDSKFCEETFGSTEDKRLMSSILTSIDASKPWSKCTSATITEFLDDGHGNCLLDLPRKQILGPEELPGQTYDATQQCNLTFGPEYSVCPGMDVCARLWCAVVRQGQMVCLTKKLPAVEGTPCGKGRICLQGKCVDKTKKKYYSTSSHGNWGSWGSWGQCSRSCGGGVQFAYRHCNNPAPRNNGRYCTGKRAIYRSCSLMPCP
Experiment: Biacore, mAb from culture supernatant captured on anti-human IgG, ADAMTS5 (R&D 2198-AD) at 64 nM, 1:1 fit

The measured koff associated with BPC1645 (antibody, human IgG1, kappa, V domains shown, Humanized, human gamma 1 / kappa; also called 7B4 H4L1) VH: EVQLVESGGGLVQPGGSLRLSCAASGFTSSDAWMDWVRQAPGKGLEWVAEIRNKANNHARHYAESVKGRFTISRDDAKNSLYLQMNSLRAEDTAVYYCTRTYYYGSSYGYCDVWGQGTLVTVSS VL: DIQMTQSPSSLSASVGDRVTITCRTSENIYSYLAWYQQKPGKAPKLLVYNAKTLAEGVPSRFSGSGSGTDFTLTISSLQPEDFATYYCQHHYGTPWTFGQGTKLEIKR reads 0.00116 s⁻¹
